Tested on: CAKI-1 renal
experimental-details: NCI-60 one-dose screen, 48 h (100 = growth as untreated, 0 = no growth, -100 = all killed)
recorded-conditions: 10 µM unless noted
Procedure: Growth inhibition of the CAKI-1 human tumor cell line is measured as a screen for anti-cancer activity. Cells are grown in 96 well plates and exposed to the test compound for 48 hours. Compounds are tested at a single concentration, which is 10^-5 M for most compounds. The reported endpoint is percent growth (GI% or GIPRCNT), where numbers from 0 - 100% represent growth inhibition, and numbers from -100% - 0 represent cell death. For example, a value of 40 represents 60% growth inhibition. […]
The panel holds about 83,000 compounds, 20% with a hit somewhere; the sample as a whole holds those more often.
property-name: growth (%)
The response must be a number in % with no trailing unit.

Request: Look at this molecule and give its reported growth. ClCCN(CCCl)c1nc(Cl)c(C2CC(c3ccccc3)=NN2c2ccccc2)s1 (stereo unspecified)
Response: 81.4

Request: Which growth reading was recorded for the molecule CCOC(=O)/C=C(\C)Nc1ccc(N/C(C)=C/C(=O)OCC)c2c1Oc1ccccc1O2 ?
Response: 95.5

Request: // query growth value for entry N#CC1=C(N)Oc2cc3c(cc2C1c1cccs1)OCO3 (stereo unspecified)
Response: 43.4

Request: GET /values?readout=growth&item= O=C(/C=C/c1ccccc1)N[C@@H](CO)Cc1cnc[nH]1
Response: 100

Request: Sample N#[N+]c1cnc([O-])[nH]c1=O — what was its growth?
Response: 94.3

Request: Given the molecule O=c1[nH]c2cc(Cl)ccc2n1C1CCN(CCCC(c2ccc(F)cc2)c2ccc(F)cc2)CC1 , what is its reported growth?
Response: 30

====

Test system: NCI/ADR-RES ovarian
experimental-details: NCI-60 one-dose screen, 48 h (100 = growth as untreated, 0 = no growth, -100 = all killed)
recorded-conditions: 10 µM unless noted
About 83,000 compounds went through this panel and 20% of them were active in at least one assay; those are over-represented in the sample as a whole.
Binary call on growth with cut-off 50%: strictly below means label 1, and equality or higher means label 0.

Request: Decide: growth of O=C(O)C1(Br)CC12c1ccccc1-c1ccccc12 (configuration not stated) strictly below 50%?
Response: label 0

Request: In the record for COc1cc(CNCCc2ccc(Cl)cc2)cc(OC)c1O , is growth less than 50%?
Response: label 1

Request: Does the reported growth of the following compound sit strictly below 50%? CC[C@]12C=CCN3CC[C@@]4(c5ccc(OC)cc5N(C)[C@H]4[C@@](O)(C(=O)OC)[C@@H]1OC(=O)CCCN1CCN(CCCC(=O)O[C@@H]4[C@]5(CC)C=CCN6CC[C@@]7(c8ccc(OC)cc8N(C)[C@H]7[C@@]4(O)C(=O)OC)[C@@H]65)CC1)[C@@H]32
Response: label 1

Request: Record ClCCN(CCCl)c1nc(Cl)c(C2CC(c3ccccc3)=NN2c2ccccc2)s1 (configuration not stated) : is its growth strictly below 50%?
Response: label 0

Request: Dear reviewer, please state whether CNC(=O)Oc1cc(C(C)C)ccc1Sc1ccc(C(C)C)cc1OC(=O)NC has growth strictly beneath 50%.
Response: label 0

Request: Hello, is growth of the following compound strictly smaller than 50%? S=P(Nc1ccccc1)(Nc1ccccc1)c1ccccc1
Response: label 0

Request: Here's an entry: CCCCOC(=O)c1ccccc1C(=O)O.CCCCOC(=O)c1ccccc1C(=O)O.[Cu+2] . Is its growth below 50%?
Response: label 0

Request: Lab note: growth threshold 50%. Does this compound come in strictly under it? CCN(CC)c1ccc(C=C2C(=O)NC(=S)NC2=O)cc1
Response: label 0

Request: In plain terms, does COc1cc(N(CCCl)CCCl)ccc1C=Nc1ccccc1C(=O)O come in under 50% for growth?
Response: label 0

Request: Quick check: does CC12CC[C@H](O)C=C1/C(=N/O)CC1C2CCC2(C)C1CC[C@@H]2O (some centres not stated) have growth under 50%?
Response: label 0

Request: Field: below-cutoff. Rule: recorded growth strictly less than 50%. Subject: CC(=O)[O][Hg][c]1ccccc1
Response: label 1

Request: # check: growth < 50% for ClCCN(CCCl)C(c1ccccc1)c1ccc(Cl)cc1 (configuration not stated)
Response: label 0

Request: Does the reported growth of CO[C@@H](c1ccccc1Cl)[C@H](C)OC(N)=O stay below 50%?
Response: label 0

Request: Is the reported growth for CC1(C)N=C(N)N=C(N)N1c1ccc(CNC(=O)Nc2ccc(S(=O)(=O)F)c(Cl)c2)c(Cl)c1 strictly below 50%?
Response: label 0

Request: Check if growth falls below 50% for CC(/C=N/N=C(N)N)=N/N=C(N)N .
Response: label 0

Request: # strict comparison: is reported growth < 50%? input = CC(C)CCC[C@@H](C)[C@H]1CC[C@H]2[C@@H]3CC=C4C[C@@H](OC(=O)Cc5ccc(N(CCCl)CCCl)cc5)CC[C@]4(C)[C@H]3CC[C@]12C
Response: label 0

Request: Given the entry O=[N+]([O-])c1cc([N+](=O)[O-])c(Cl)c(Cl)c1Cl , would its reported growth be below 50%?
Response: label 1

Request: Quick check: growth of CCC[CH2][Sn]([CH2]CCC)([CH2]CCC)[O]C(=O)CC under 50%?
Response: label 1

Request: growth under 50%? Item: O=C1C=CC(=O)C2C1C1(Cl)C(Cl)=C(Cl)C2(Cl)C1(Cl)Cl (configuration not stated)
Response: label 1

Request: In plain terms, does OC1CCCCC1N1CCC(c2ccccc2)CC1 (configuration not stated) come in under 50% for growth?
Response: label 0

Request: Is it true that growth reported for CCOc1cc(/C=N\Nc2nnc(C)n2N)c(C)cc1N(CCCl)CCCl is less than 50%?
Response: label 1

Request: Does this compound meet the criterion growth < 50%? CSc1ccccc1NP1(=O)OCC(C)([N+](=O)[O-])CO1 (configuration not stated)
Response: label 0

Request: Lab note: growth threshold 50%. Does this compound come in strictly under it? Cc1ccc(C(=O)C2CN(C)CCC2(O)c2ccc(C)cc2)cc1 (configuration not stated)
Response: label 0

Request: Is the reported growth for O=C1NC(=O)C(Cc2ccccc2)(Cc2ccccc2)C(=O)N1 strictly below 50%?
Response: label 0

Request: Consider the compound O=C1NC(=S)NC(=O)C1=Cc1ccccc1 . Is its growth strictly less than 50%?
Response: label 0

Request: Quick check: does CC(=O)O[C@@H]1C2=C(C)C3(CC3)[C@@](C)(O)C(=O)C2=C[C@@]1(C)CO have growth under 50%?
Response: label 1

Request: For C/C(=C\c1cc(C(F)(F)F)n(-c2ccc(N)cc2)n1)[C@@H]1C[C@@H]2O[C@]2(C)CCC[C@H](C)[C@H](O)[C@@H](C)C(=O)C(C)(C)[C@@H](O)CC(=O)O1 , is the recorded growth below the cut-off of 50%?
Response: label 1

Request: Regarding COC(=O)C1CC2c3ccccc3C1c1ccccc12 (configuration not stated) , kindly confirm whether its growth is beneath 50%.
Response: label 0

Request: Hello, is growth of the following compound strictly smaller than 50%? COc1ccc2c(c1)NC1=C(C(=O)OC1)C2c1cc(OC)c(OC)c(OC)c1 (configuration not stated)
Response: label 1

Request: Find out if reported growth for Nc1ccc([N+](=O)[O-])c2c1Oc1ccccc1O2 is less than 50%
Response: label 0

Request: Hello, I'm reviewing records and need to know if growth of O=C(NCc1ccc([N+](=O)[O-])cc1)Nc1ccc(S(=O)(=O)F)cc1 is below 50%. Could you check?
Response: label 0

Request: Does the reported growth of the following compound sit strictly below 50%? O=C(NCCNC(=O)c1ccc([As](O)O)cc1)c1ccc([As](O)O)cc1
Response: label 0

Request: Please let me know if N#C[Se]CCN1C(=O)C2C(C1=O)[C@H]1C=C[C@@H]2S1 (some centres not stated) shows growth below 50%.
Response: label 1

Request: Please indicate whether the reported growth of O=C(O)c1[nH]c(=O)[nH]c(=O)c1F is strictly below 50%.
Response: label 0

Request: Input N#Cc1ncc(/N=C/c2ccc(N(CCCl)CCCl)cc2)s1 ; condition: growth strictly below 50%. Does it hold?
Response: label 0

Request: Determine if NS(=O)(=O)c1nc[nH]c1[N+](=O)[O-] shows growth strictly lower than 50%.
Response: label 0

Request: Field: below-cutoff. Rule: recorded growth strictly less than 50%. Subject: CCOC(=O)c1cnc(SCc2ccc(Cl)c(Cl)c2)nc1N1CC1
Response: label 1

Request: In the record for CC[C@@H](C)/C=C(C)/C=C/C(=O)c1c(O)c(-c2ccc(O)cc2)cn(O)c1=O , is growth less than 50%?
Response: label 1

Request: Determine if O=CN1N=C(c2ccccc2)CC1c1sc(N(CCCl)CCCl)nc1Cl (configuration not stated) shows growth strictly lower than 50%.
Response: label 0

Request: Please state whether growth is below 50% for c1ccc([As]=[As]c2ccccc2)cc1 (configuration not stated)
Response: label 1

Request: Please let me know if CC(C)N=C(NC(C)C)N1CC1 shows growth below 50%.
Response: label 0
